// provenance: patent US20200085791A1

Molecular target: recombinant human AKR1C3 (Aldo-keto reductase family 1 member C3) (Homo sapiens)
Construct: GST (cleaved yes)
Sequence (P42330 1-323): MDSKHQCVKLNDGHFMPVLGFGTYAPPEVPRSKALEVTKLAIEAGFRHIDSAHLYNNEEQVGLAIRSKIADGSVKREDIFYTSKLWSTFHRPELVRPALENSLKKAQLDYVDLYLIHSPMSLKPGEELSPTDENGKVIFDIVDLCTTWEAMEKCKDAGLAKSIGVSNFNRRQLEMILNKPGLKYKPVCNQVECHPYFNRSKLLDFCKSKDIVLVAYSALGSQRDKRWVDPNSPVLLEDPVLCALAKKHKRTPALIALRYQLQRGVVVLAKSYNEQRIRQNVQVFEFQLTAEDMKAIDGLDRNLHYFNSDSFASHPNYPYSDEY
Assay: In Vitro Assay 1: AKR1C3-inhibitory activity (Coumberone to Coumberol fluorescence assay)
Conditions: recombinant enzyme, Coumberone 0.3 μM, NADPH 10 μM, 15 min pre-incubation, 4-parameter fit; average or median values
pIC50: −log10 of the molar value.
ATTRIBUTE MEASURED: pIC50

1. Cc1cccc(S(=O)(=O)N2[C@@H]3CC[C@H]2[C@H]2CN(C(=O)c4cnn[nH]4)C[C@H]23)c1 [Example 23] ... 7.41
2. COc1ccccc1S(=O)(=O)N1[C@@H]2CC[C@H]1[C@H]1CN(C(=O)c3c[nH]nn3)C[C@H]12 [Example 15] ... 7.35
3. O=C(c1cnn[nH]1)N1C[C@@H]2[C@H](C1)[C@H]1CC[C@@H]2N1S(=O)(=O)c1cccc(Cl)c1Cl [Example 42] ... 8.15
4. O=C(c1cnn[nH]1)N1C[C@@H]2[C@H](C1)[C@H]1CC[C@@H]2N1S(=O)(=O)c1ccc(Cl)cc1 [Example 31] ... 6.76
5. N#Cc1ccc(Cl)c(S(=O)(=O)N2[C@@H]3CC[C@H]2[C@@H]2CN(C(=O)c4cnn[nH]4)C[C@@H]23)c1 [Example 67] ... 7.48

1. O=C(c1cnn[nH]1)N1C[C@@H]2[C@H](C1)[C@H]1CC[C@@H]2N1S(=O)(=O)c1ccc(F)cc1Cl [Example 39]
2. O=C(c1c[nH]nn1)N1C[C@@H]2[C@H](C1)[C@@H]1CC[C@H]2N1S(=O)(=O)c1cccc(Cl)c1C(F)(F)F [Example 17]
Request: Of 1 and 2 , which shows the smaller pIC50 value? Answer with the label corresponding to your selection.
Result: 2
(2: 7.29, 1: 8.40)
